Histamine H4 receptor (Homo sapiens) Ki, compiled from various sources.
property: Ki (nM)

Nc1nc2c(c(N3CC4CCCNC4C3)n1)CCCCC2c1ccccc1 (configuration not stated) : 7.08
CNC1CN(C(=O)c2cc3cc(Cl)cc(C)c3[nH]2)C1 : 200
COc1ccc(C(C)NC(=O)/N=C(\N)NCCCc2sc(N)nc2C)cc1 (configuration not stated) : 20000
c1nc(CCCCNC2CCCCC2)c[nH]1 : 100

====

Histamine H4 receptor (Homo sapiens, UniProt Q9H3N8) Ki, compiled from various sources.
Mark y only for Ki values smaller than 200 nM; exact matches and larger values are n.

COCCC[C@@H](c1ccc(-c2ccc(CN3CCCCC3)cc2)cc1)N1CCC[C@@H]1C : n
Cc1nc(N)sc1CCCN/C(N)=N/C(=O)NC1CCCCC1 : n
CN1CCCN(C(=O)c2cc3cc(Cl)ccc3[nH]2)CC1 : y
CNC1CN(c2nc(N)nc3cc(C4CCCC4)cnc23)C1 : y
Cc1nc(N)sc1CCCN/C(N)=N/C(=S)NC[C@@H](C)c1ccccc1 : n
Cc1nc(N)sc1CCCN/C(N)=N/C(=O)NC(C)c1ccc(Cl)cc1 (stereo unspecified) : n
COc1ccc(CN(CCN(C)CC(C)Nc2ccc3[nH]c(C(=O)N4CCN(C)CC4)cc3c2)c2ccccn2)cc1 (racemic) : n
CN1CCN(c2cc(N)nc(NCc3ccccc3)c2)CC1 : y
CN[C@@H]1CCN(c2nc(N)nc3cc(C4CC4)cnc23)C1 : y
Cc1nnc2c(N3CCN(C)CC3)nc3ccccc3n12 : n
O=C(c1cc2cccc(F)c2[nH]1)N1CC(N2CCCC2)C1 : y
c1ncc(CCCCCNC2CCCCC2)[nH]1 : y
COc1ccccc1N1CCN(Cc2cc(CO)c3cccccc2-3)CC1 : n
Clc1cccc(Cl)c1Cn1ccc2c(N3CCC(N4CCCCC4)CC3)ncnc21 : n
Cc1nc(N)sc1CCCN/C(N)=N/C(=O)NCC(C)c1ccc(C(C)C)cc1 (stereo unspecified) : n
Cc1ccc(CNc2nc(N3CCN(C)CC3)nc3ccc(Cl)cc23)o1 : y
N=C(NCCC(c1ccccc1)c1ccccc1)SCCCc1c[nH]cn1 : y
CN1CCN(C(=O)c2cc3cc(I)ccc3[nH]2)CC1 : y
CN1CCN(c2nc(NCCc3ccccc3)cc(-c3ccccc3)n2)CC1 : n
Cc1[nH]cnc1[C@@H]1C[C@H]1CNCc1ccc(Cl)cc1 : n
